# measurement description: S16 Schwann cell viability assay (CellTiter-Glo assay) (AID 624031); also: nearly all actives have a fitted effect of over 70% in size
# details: S16 rat Schwann cells viability, 24 h; series mostly up to 57.5 µM
Records with an inconclusive call do not appear. The source made the active and inactive calls. Calls follow the shape of the dose curve; as a rule, active = well fitted cell-killing curve with a large enough effect; inconclusive = small, poorly fitted or top-dose-only effect, or effect the other way; inactive = flat fitted curve, though single readings scatter.
Pick one: active, inactive

Exercise: What did this assay record as the result for COC(=O)[C@H]1[C@H]2C[C@@H]3c4[nH]c5cc(OC)ccc5c4CCN3C[C@H]2C[C@@H](OC(=O)c2cc(OC)c(OC)c(OC)c2)[C@@H]1OC ?
Solution: inactive

Exercise: Same thing, different compound: C[N+](C)(C)CCOC(=O)CCC(=O)OCC[N+](C)(C)C
Solution: inactive

Exercise: Same thing, different compound: COc1ccc(CN(CCN(C)C)c2ccccn2)cc1
Solution: inactive

Exercise: Same thing, different compound: OCCN1CCN(CC/C=C2/c3ccccc3Sc3ccc(C(F)(F)F)cc32)CC1
Solution: active

Exercise: Same thing, different compound: CCN(CC)CCNC(=O)c1ccc(NC(C)=O)cc1
Solution: inactive

Exercise: Same thing, different compound: COc1cc2c(cc1OC)-c1cc(=Nc3c(C)cc(C)cc3C)n(C)c(=O)n1CC2
Solution: active

---

# System: MKL-2
# measurement description: qHTS assay to identify novel small-molecules to repurpose for Merkel cell carcinoma treatment (AID 1296009); also: nearly all actives have a fitted effect of over 60% in size
# details: MCC and control cell lines, CellTiter-Glo viability, 72 h; series mostly up to 46 µM
Results filed as inconclusive are left out. The source made the active and inactive calls. Calls follow the shape of the dose curve; as a rule, active = well fitted inhibition curve with a large enough effect; inconclusive = small, poorly fitted or top-dose-only effect; inactive = flat fitted curve, though single readings scatter.
Pick one: active, inactive

Exercise: What did this assay record as the result for CN(C)CCOC(=O)COc1ccc(Cl)cc1 ?
Solution: inactive

Exercise: Same thing, different molecule: N[C@@H](COP(=O)(O)O)C(=O)O
Solution: inactive

Exercise: Same thing, different molecule: Cc1nnc(SCC2=C(C(=O)O)N3C(=O)[C@@H](NC(=O)Cn4cnnn4)[C@H]3SC2)s1
Solution: active

Exercise: Same thing, different molecule: CCn1ccnc1CC1COc2ccccc2O1 (stereo unspecified)
Solution: inactive

Exercise: Same thing, different molecule: Cc1scc2c1N(C(=O)CN1CCN(C)CC1)c1ccccc1NC2=O
Solution: inactive

Exercise: Same thing, different molecule: CN(C)CC[C@@H](c1ccc(Br)cc1)c1ccccn1
Solution: inactive

Exercise: Same thing, different molecule: O=C1CC2(CCCC2)CC(=O)N1CCCCN1CCN(c2ncccn2)CC1
Solution: inactive

Exercise: Same thing, different molecule: CCCCCN(CCCCC)C(=O)C(CCC(=O)O)NC(=O)c1ccc(Cl)c(Cl)c1 (stereo unspecified)
Solution: inactive

Exercise: Same thing, different molecule: CSc1ccc(C(=O)c2[nH]c(=O)[nH]c2C)cc1
Solution: inactive

Exercise: Same thing, different molecule: C[C@]12C=CC(=O)C=C1CC[C@H]1[C@@H]3C[C@@H](O)[C@](O)(C(=O)CO)[C@@]3(C)C[C@H](O)[C@@]12F
Solution: inactive

Exercise: Same thing, different molecule: COc1cc(Cc2cnc(N)nc2N)cc(OC)c1OC
Solution: inactive

---

# measurement description: qHTS of pediatric cancer cell lines to identify multiple opportunities for drug repurposing: Primary screen for A673 cells (AID 1347092); also: nearly all actives have a fitted effect of over 45% in size
# details: A673 Ewing sarcoma viability, CellTiter-Glo ATP luminescence, 48 h; series mostly up to 46 µM
Inconclusive results are not listed. Activity calls are given as the source filed them. The call rests on the fitted dose curve; in most records, active means well fitted cell-killing curve with a large enough effect; inconclusive means small, poorly fitted or top-dose-only effect; inactive means no such curve, though single readings can be large or run the other way.
Pick one: active, inactive

Exercise: What did this assay record as the result for CC(C)(C)NCC(O)c1cc(O)cc(O)c1 (stereo not drawn) ?
Solution: inactive

Exercise: Same thing, different molecule: NC(N)=NC(=O)Cc1c(Cl)cccc1Cl
Solution: inactive

Exercise: Same thing, different molecule: CCn1ccnc1CC1COc2ccccc2O1 (stereo not drawn)
Solution: inactive

Exercise: Same thing, different molecule: C[C@@H](O)[C@H]1C(=O)N2C(C(=O)O)=C(SCCN=CN)C[C@H]12
Solution: inactive

Exercise: Same thing, different molecule: CC(=O)OCC1=C(C(=O)O)N2C(=O)[C@@H](NC(=O)Cc3cccs3)[C@H]2SC1
Solution: inactive

Exercise: Same thing, different molecule: CC(=O)[C@@]1(O)CC[C@H]2[C@@H]3CCC4=CC(=O)CC[C@]4(C)[C@H]3CC[C@@]21C
Solution: inactive

Exercise: Same thing, different molecule: CN(C)CCN(Cc1cccs1)c1ccccn1
Solution: inactive

Exercise: Same thing, different molecule: CNC1(C)C2CCC(C2)C1(C)C (stereo not drawn)
Solution: inactive

Exercise: Same thing, different molecule: CCN(CC)CCOCCOC(=O)C1(c2ccccc2)CCCC1
Solution: inactive

Exercise: Same thing, different molecule: NC(=O)c1ncn([C@@H]2O[C@H](CO)[C@@H](O)[C@H]2O)c1O
Solution: inactive

Exercise: Same thing, different molecule: CN1C(=O)CC[C@H]1c1cccnc1
Solution: inactive

Exercise: Same thing, different molecule: CCCCNc1ccc(C(=O)OCCN(C)C)cc1
Solution: inactive

Exercise: Same thing, different molecule: C[N+](C)(C)CCOC(N)=O
Solution: inactive

Exercise: Same thing, different molecule: CCn1nc(C(=O)O)c(=O)c2cc3c(cc21)OCO3
Solution: inactive

Exercise: Same thing, different molecule: CCCCCN(CCCCC)C(=O)C(CCC(=O)O)NC(=O)c1ccc(Cl)c(Cl)c1 (stereo not drawn)
Solution: inactive

Exercise: Same thing, different molecule: Cc1ccc(Cl)c(Nc2ccccc2C(=O)O)c1Cl
Solution: inactive

Exercise: Same thing, different molecule: Cc1cc(C)c(/C=C2\C(=O)Nc3ccccc32)[nH]1
Solution: inactive

Exercise: Same thing, different molecule: NS(=O)(=O)c1cc2c(cc1Cl)NC(C1CC3C=CC1C3)NS2(=O)=O (stereo not drawn)
Solution: inactive

Exercise: Same thing, different molecule: COCCc1ccc(OCC(O)CNC(C)C)cc1 (stereo not drawn)
Solution: inactive

Exercise: Same thing, different molecule: CSc1ccc(C(=O)c2[nH]c(=O)[nH]c2C)cc1
Solution: inactive

Exercise: Same thing, different molecule: CCN(Cc1ccncc1)C(=O)C(CO)c1ccccc1 (stereo not drawn)
Solution: inactive

Exercise: Same thing, different molecule: CN(C)[C@@H]1C(=O)C(C(N)=O)=C(O)[C@@]2(O)C(=O)C3=C(O)c4c(O)ccc(Cl)c4[C@@H](O)[C@H]3C[C@@H]12
Solution: inactive

Exercise: Same thing, different molecule: C[C@H](CS)C(=O)N1CCC[C@H]1C(=O)O
Solution: inactive

Exercise: Same thing, different molecule: C[C@]12C=CC(=O)C=C1CC[C@H]1[C@@H]3C[C@@H](O)[C@](O)(C(=O)CO)[C@@]3(C)C[C@H](O)[C@@]12F
Solution: inactive

Exercise: Same thing, different molecule: COC(=O)[C@@H](N)Cc1ccc(O)c(O)c1
Solution: inactive

Exercise: Same thing, different molecule: CCN(CC)CCNC(=O)c1cc(S(C)(=O)=O)ccc1OC
Solution: inactive

Exercise: Same thing, different molecule: CN(C)C/C=C(/c1ccc(Br)cc1)c1cccnc1
Solution: inactive

Exercise: Same thing, different molecule: CCCCCCCC/C=C\CCCCCCCC(=O)NCc1ccc(O)c(OC)c1
Solution: active

Exercise: Same thing, different molecule: C[n+]1cc2c3c(ccc2c2ccc4cc5c(cc4c21)OCO5)OCO3
Solution: active

Exercise: Same thing, different molecule: CCCN(CCC)C(=O)C(CCC(=O)O)NC(=O)c1ccccc1 (stereo not drawn)
Solution: inactive

Exercise: Same thing, different molecule: C[N+](C)(C)CCCCCCCCCC[N+](C)(C)C
Solution: inactive

Exercise: Same thing, different molecule: NC1=NCC2c3ccccc3Cc3ccccc3N12 (stereo not drawn)
Solution: inactive

Exercise: Same thing, different molecule: Cc1cccc(C)c1NC(=O)C(C)N (stereo not drawn)
Solution: inactive

Exercise: Same thing, different molecule: OC(CCN1CCCCC1)(c1ccccc1)C1CCCCC1 (stereo not drawn)
Solution: inactive

Exercise: Same thing, different molecule: Cc1ccc(S(=O)(=O)NC(=O)NN2CCCCCC2)cc1
Solution: inactive

Exercise: Same thing, different molecule: CNCCC(Oc1ccccc1OC)c1ccccc1 (stereo not drawn)
Solution: inactive

Exercise: Same thing, different molecule: CN(C(=O)CCCOc1ccc2[nH]c(=O)ccc2c1)C1CCCCC1
Solution: inactive

Exercise: Same thing, different molecule: COc1ccc(CN(CCN(C)C)c2ccccn2)cc1
Solution: inactive

Exercise: Same thing, different molecule: CN(C)CCOC(=O)COc1ccc(Cl)cc1
Solution: inactive

Exercise: Same thing, different molecule: COc1cc(Cc2cnc(N)nc2N)cc(OC)c1OC
Solution: inactive

Exercise: Same thing, different molecule: CCn1cc(C(=O)O)c(=O)c2cc3c(cc21)OCO3
Solution: inactive

Exercise: Same thing, different molecule: CCCN1C[C@H](CSC)C[C@@H]2c3cccc4[nH]cc(c34)C[C@H]21
Solution: inactive

Exercise: Same thing, different molecule: C[N+](C)(C)CCOC(=O)CCC(=O)OCC[N+](C)(C)C
Solution: inactive

Exercise: Same thing, different molecule: NC(=O)c1cn(Cc2c(F)cccc2F)nn1
Solution: inactive

Exercise: Same thing, different molecule: CC(=O)Oc1cc(C(C)C)c(OCCN(C)C)cc1C
Solution: inactive

Exercise: Same thing, different molecule: Cc1scc2c1N(C(=O)CN1CCN(C)CC1)c1ccccc1NC2=O
Solution: inactive

Exercise: Same thing, different molecule: CN(C)CC[C@@H](c1ccc(Br)cc1)c1ccccn1
Solution: inactive

Exercise: Same thing, different molecule: CCOC(=O)C1=C(C)NC(C)=C(C(=O)OC)C1c1cccc([N+](=O)[O-])c1 (stereo not drawn)
Solution: inactive
